test system: H9; experiment: Anti-HIV activity was measured in […] by MAGI assay; format: functional, cell-based; settings: Homo sapiens
measuredParameter: EC50 (nM)

Cc1cn([C@H]2C[C@H](N=[N+]=[N-])[C@@H](CO)O2)c(=O)[nH]c1=O; 37

----------
system: H9; test: Anti-HIV activity against acutely infected H9 lymphocytes. Activity expressed as concentration of compound able to suppress HIV replication by 50%.; format: functional, cell-based; conditions: Homo sapiens
pEC50: −log10 of the molar value.
Entry flag: true (1) if pEC50 reaches 6; false (0) if it does not.

C=C(C)[C@@H]1CC[C@]2(CNC(=O)CC3(CC(=O)O)CCCC3)CC[C@]3(C)[C@H](CC[C@@H]4[C@@]5(C)CC[C@H](NC(=O)CC6(CC(=O)O)CCCC6)C(C)(C)[C@@H]5CC[C@]43C)[C@@H]12; false (0)
C=C(C)[C@@H]1CC[C@]2(CNC(=O)CC(C)(C)CC(=O)O)CC[C@]3(C)[C@H](CC[C@@H]4[C@@]5(C)CC[C@H](NC(=O)CC(C)(C)CC(=O)O)C(C)(C)[C@@H]5CC[C@]43C)[C@@H]12; true (1)
C=C(C)[C@@H]1CC[C@]2(C(=O)O)CC[C@]3(C)[C@H](CC[C@@H]4[C@@]5(C)CC[C@H](OC(=O)CC(C)(C)C(=O)O)C(C)(C)[C@@H]5CC[C@]43C)[C@@H]12; true (1)
C=C(C)[C@@H]1CC[C@]2(COC(=O)CC3(CC(=O)O)CCCC3)CC[C@]3(C)[C@H](CC[C@@H]4[C@@]5(C)CC[C@H](O)C(C)(C)[C@@H]5CC[C@]43C)[C@@H]12; false (0)
C=C(C)[C@@H]1CC[C@]2(COC(=O)CCC(=O)O)CC[C@]3(C)[C@H](CC[C@@H]4[C@@]5(C)CC[C@H](OC(=O)CCC(=O)O)C(C)(C)[C@@H]5CC[C@]43C)[C@@H]12; false (0)
C=C(C)[C@@H]1CC[C@]2(C=O)CC[C@]3(C)[C@H](CC[C@@H]4[C@@]5(C)CCC(=O)C(C)(C)[C@@H]5CC[C@]43C)[C@@H]12; false (0)
CC(C)[C@@H]1CC[C@]2(COC(=O)CCC(=O)O)CC[C@]3(C)[C@H](CC[C@@H]4[C@@]5(C)CC[C@H](OC(=O)CCC(=O)O)C(C)(C)[C@@H]5CC[C@]43C)[C@@H]12; false (0)
C=C(C)[C@@H]1CC[C@]2(COC(=O)CC(C)CC(=O)O)CC[C@]3(C)[C@H](CC[C@@H]4[C@@]5(C)CC[C@H](OC(=O)CC(C)CC(=O)O)C(C)(C)[C@@H]5CC[C@]43C)[C@@H]12 (some centres undefined); true (1)
C=C(COC(=O)CC1(CC(=O)O)CCCC1)[C@@H]1CC[C@]2(COC(=O)CC3(CC(=O)O)CCCC3)CC[C@]3(C)[C@H](CC[C@@H]4[C@@]5(C)CC[C@H](OC(=O)CC6(CC(=O)O)CCCC6)C(C)(C)[C@@H]5CC[C@]43C)[C@@H]12; true (1)

The measurements presented in this section are drawn from ChEMBL document CHEMBL1131182.
